- PROTOCOL_TEXT: Cytotoxicity against mouse Melan-a cells assessed as cell viability at 30 uM
- Format: cell-based
- CONDITION_SUMMARY: Melan-a cells, read-out: Activity
Overview of reported viability at 30 µM across a group of molecules:
MEASURED_PROPERTY: viability at 30 µM

>>> measured_value("COc1ccc(NC(=O)c2ccc(C)cc2)c(OC)c1")
"14.4%"
>>> measured_value("COc1cccc(NC(=O)c2ccco2)c1")
"0.4%"
>>> measured_value("COc1ccc(OC)c(NC(=O)c2ccc(C)cc2)c1")
"-3.2%"
>>> measured_value("COc1ccc(NC(=O)c2ccccc2C)c(OC)c1")
"-3.5%"
>>> measured_value("COc1ccc(C(=O)Nc2cccc(C)c2)cc1")
"-1.7%"
>>> measured_value("N#Cc1ccc(C(=O)Nc2cc(C(F)(F)F)cc(C(F)(F)F)c2)cc1")
"33.3%"
>>> measured_value("COc1cccc(C(=O)Nc2ccc(C(C)=O)cc2)c1")
"-5%"
>>> measured_value("CCc1ccc(C(=O)Nc2ccc(OC)cc2OC)cc1")
"-6.5%"
>>> measured_value("COc1ccc(NC(=O)c2ccc(OC)cc2)cc1")
"-10.6%"
>>> measured_value("COc1ccccc1NC(=O)c1ccc(C)cc1")
"18.5%"
>>> measured_value("COc1ccc(NC(=O)c2ccc(C#N)cc2)cc1")
"8.8%"
>>> measured_value("COC(=O)c1ccc(NC(=O)c2ccc(C)cc2)cc1")
"11.2%"
>>> measured_value("CC(=O)c1ccc(NC(=O)c2ccc(C)cc2)cc1")
"11.2%"

Data origin, for the record: ChEMBL document CHEMBL1212835
